Origin of measurements: ChEMBL document CHEMBL5034019

ASSAY METHOD TEXT: in vitro
PROTOCOL CONDITIONS: human, Caco-2
Description: Efflux ratio of apparent permeability from basolateral to apical over apical to basolateral side in human Caco2 cells incubated for 2 hrs by LC-MS/MS analysis
RESULT TYPE: efflux ratio at 2 h

## Task Specify reported efflux ratio at 2 h for the molecule shown: `O=C1NC2(CC2)COc2ncc(F)cc2[C@H]2COCCN2c2ccn3ncc1c3n2`
## Result 2.8

====

ASSAY METHOD TEXT: Tmax in female Sprague-Dawley rat at 10 mg/kg, po measured up to 24 hrs by LC-MS analysis
Format: ADME, organism-based
PROTOCOL CONDITIONS: in vivo
RESULT TYPE: Tmax (min)
Report as a plain number; the unit min is understood.

## Task Specify reported Tmax for the compound shown: `O=C1NC2(CC2)COc2ncc(F)cc2[C@H]2COCCN2c2ccn3ncc1c3n2`
## Result 40

====

SYSTEM UNDER TEST: ALK tyrosine kinase receptor (Homo sapiens, UniProt Q9UM73)
Sequence (Q9UM73 whole entry): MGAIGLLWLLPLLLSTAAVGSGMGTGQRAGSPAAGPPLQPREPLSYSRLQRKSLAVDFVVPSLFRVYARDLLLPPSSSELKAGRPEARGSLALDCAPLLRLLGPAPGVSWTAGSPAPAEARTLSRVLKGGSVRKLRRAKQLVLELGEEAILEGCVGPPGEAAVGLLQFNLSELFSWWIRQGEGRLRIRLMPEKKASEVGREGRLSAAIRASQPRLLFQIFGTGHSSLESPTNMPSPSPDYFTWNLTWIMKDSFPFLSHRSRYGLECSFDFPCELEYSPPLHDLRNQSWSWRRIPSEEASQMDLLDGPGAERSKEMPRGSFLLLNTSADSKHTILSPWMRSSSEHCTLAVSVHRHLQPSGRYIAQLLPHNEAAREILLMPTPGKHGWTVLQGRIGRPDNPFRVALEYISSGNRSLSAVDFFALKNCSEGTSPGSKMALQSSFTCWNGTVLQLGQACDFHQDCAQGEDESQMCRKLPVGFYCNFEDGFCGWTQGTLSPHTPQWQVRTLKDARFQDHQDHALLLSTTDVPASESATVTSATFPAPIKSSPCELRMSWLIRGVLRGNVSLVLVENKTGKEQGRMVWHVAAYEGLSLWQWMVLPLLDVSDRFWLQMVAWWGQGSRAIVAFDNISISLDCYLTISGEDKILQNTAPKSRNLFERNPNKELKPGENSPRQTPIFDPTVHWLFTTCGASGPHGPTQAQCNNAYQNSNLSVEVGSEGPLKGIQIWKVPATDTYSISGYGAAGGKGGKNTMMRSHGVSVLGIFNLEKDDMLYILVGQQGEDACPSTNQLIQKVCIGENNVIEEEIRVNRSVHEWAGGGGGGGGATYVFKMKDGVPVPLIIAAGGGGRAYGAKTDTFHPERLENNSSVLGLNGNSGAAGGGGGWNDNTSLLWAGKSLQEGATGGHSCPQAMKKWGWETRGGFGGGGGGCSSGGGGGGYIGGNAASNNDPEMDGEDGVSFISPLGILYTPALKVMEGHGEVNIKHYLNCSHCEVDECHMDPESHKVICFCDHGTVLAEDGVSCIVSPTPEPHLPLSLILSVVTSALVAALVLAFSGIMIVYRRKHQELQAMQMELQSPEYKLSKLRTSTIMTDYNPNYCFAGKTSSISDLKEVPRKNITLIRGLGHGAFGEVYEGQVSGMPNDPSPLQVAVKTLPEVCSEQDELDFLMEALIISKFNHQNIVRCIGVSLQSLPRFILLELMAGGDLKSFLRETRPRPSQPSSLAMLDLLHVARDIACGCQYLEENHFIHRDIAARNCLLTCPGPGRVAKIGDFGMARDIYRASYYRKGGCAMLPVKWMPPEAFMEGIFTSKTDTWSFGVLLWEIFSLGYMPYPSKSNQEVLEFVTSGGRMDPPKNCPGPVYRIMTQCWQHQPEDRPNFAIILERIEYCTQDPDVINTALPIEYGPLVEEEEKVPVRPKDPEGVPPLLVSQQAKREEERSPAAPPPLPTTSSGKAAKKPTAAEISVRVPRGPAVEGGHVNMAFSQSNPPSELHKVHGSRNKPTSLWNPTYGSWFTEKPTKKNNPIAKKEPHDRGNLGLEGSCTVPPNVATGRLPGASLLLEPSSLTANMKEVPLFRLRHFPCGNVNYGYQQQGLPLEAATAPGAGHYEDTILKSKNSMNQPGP
RESULT TYPE: IC50 (nM)
Report as a plain number; the unit nM is understood.

## Task Answer briefly: IC50 recorded on ALK tyrosine kinase receptor (Homo sapiens, UniProt Q9UM73) for `O=C1NC2(CC2)COc2ncc(F)cc2[C@H]2CCCCN2c2ccn3ncc1c3n2`
## Result 18.5

====

Reported CLint scaled at 1 µM values for a set of molecules
ASSAY METHOD TEXT: Metabolic stability in rat liver microsomes assessed as intrinsic clearance at 1 uM by LC-MS/MS analysis
Format: ADME, Microsome
PROTOCOL CONDITIONS: read-out: CLH
Dear colleague, please send the value followed by its unit.

Here are 4 molecules together with their reported answers.
O=C1NC2(CC2)COc2ncc(F)cc2[C@H]2COCCN2c2ccn3ncc1c3n2; 28.8 mL/min/kg
O=C1NC2(CC2)COc2ncc(F)cc2[C@H]2CNCCN2c2ccn3ncc1c3n2; 29 mL/min/kg
C[C@@H]1CCc2ncc(F)cc2[C@H]2CCCN2c2ccn3ncc(c3n2)C(=O)N1; 92 mL/min/kg
C[C@H]1CNC(=O)c2cnn3ccc(nc23)N[C@H](C)c2cc(F)ccc2O1; 49 mL/min/kg

Okay, next one:
## Task Specify reported CLint scaled at 1 µM for the molecule shown: `O=C1NC2(CC2)COc2ncc(F)cc2[C@H]2CCCCN2c2ccn3ncc1c3n2`
## Result 980 mL/min/kg

====

SYSTEM UNDER TEST: Cytochrome P450 3A4 (Homo sapiens)
Sequence (P08684 whole entry): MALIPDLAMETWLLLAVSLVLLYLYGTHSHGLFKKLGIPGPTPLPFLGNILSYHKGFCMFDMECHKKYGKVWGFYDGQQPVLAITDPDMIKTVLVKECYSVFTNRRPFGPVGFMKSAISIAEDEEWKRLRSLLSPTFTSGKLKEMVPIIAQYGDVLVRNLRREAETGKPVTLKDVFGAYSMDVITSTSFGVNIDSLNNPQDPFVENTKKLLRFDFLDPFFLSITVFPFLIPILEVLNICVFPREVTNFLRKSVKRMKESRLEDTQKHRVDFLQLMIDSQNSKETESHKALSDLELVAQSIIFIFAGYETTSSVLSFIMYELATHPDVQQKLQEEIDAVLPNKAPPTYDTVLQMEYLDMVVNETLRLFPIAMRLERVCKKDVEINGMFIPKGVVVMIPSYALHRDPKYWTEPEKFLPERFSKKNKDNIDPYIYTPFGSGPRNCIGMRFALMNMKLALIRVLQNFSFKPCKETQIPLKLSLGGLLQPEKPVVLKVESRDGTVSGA
pIC50: −log10 of the molar value.
RESULT TYPE: pIC50

## Task Answer briefly: pIC50 recorded on Cytochrome P450 3A4 (Homo sapiens) for `C[C@@H]1CCc2ncc(F)cc2[C@H]2CCCN2c2ccn3ncc(c3n2)C(=O)N1`
## Result < 4.30

====

ASSAY METHOD TEXT: AUC (0 to t) in Sprague-Dawley rat at 3 mg/kg measured up to 24 hrs by LC-MS/MS analysis
Assay type: ADME, organism-based
Parameters: dose 3 mg/kg, time <=24
PROTOCOL CONDITIONS: in vivo
Reported AUC(0-t) at 24 h values for a set of compounds
Report as a plain number; the unit µM·h is understood.

C[C@@H]1CCc2ncc(F)cc2[C@H]2CCCN2c2ccn3ncc(c3n2)C(=O)N1; 11.1

## Task Specify reported AUC(0-t) at 24 h for the compound shown: `C[C@H]1CNC(=O)c2cnn3ccc(nc23)N[C@H](C)c2cc(F)ccc2O1`
## Result 15

====

ASSAY METHOD TEXT: Clearance in Sprague-Dawley rat at 3 mg/kg measured up to 24 hrs by LC/MS/MS analysis
Type: ADME, organism-based
PROTOCOL CONDITIONS: in vivo
Reported clearance values for a set of compounds
Report as a plain number; the unit mL/min/kg is understood.

C[C@H]1CNC(=O)c2cnn3ccc(nc23)N[C@H](C)c2cc(F)ccc2O1; 9.4

Okay, next one:
## Task Specify reported clearance for the compound shown: `C[C@@H]1CCc2ncc(F)cc2[C@H]2CCCN2c2ccn3ncc(c3n2)C(=O)N1`
## Result 11.8

====

Tested on: BaF3
ASSAY METHOD TEXT: Cytotoxicity against mouse BaF3 cells transfected with TrKA G623R mutant assessed as reduction in cell viability by MTT assay
Type: functional, cell-based
Reported pIC50 values for a set of compounds
Formally, pIC50 is defined as -log10 of the concentration c, with c in mol/L.

O=C1NC2(CC2)COc2ncc(F)cc2[C@H]2CCCCN2c2ccn3ncc1c3n2; 8.24

## Task Answer briefly: pIC50 recorded on BaF3 for `C[C@@H]1CCc2ncc(F)cc2[C@H]2CCCN2c2ccn3ncc(c3n2)C(=O)N1`
## Result 8.57

## Task Answer briefly: pIC50 recorded on BaF3 for `C[C@H]1CNC(=O)c2cnn3ccc(nc23)N[C@H](C)c2cc(F)ccc2O1`
## Result 8.32

## Task Answer briefly: pIC50 recorded on BaF3 for `O=C1NC2(CC2)COc2ncc(F)cc2[C@H]2COCCN2c2ccn3ncc1c3n2`
## Result 8.57

====

ASSAY METHOD TEXT: AUC (0 to t) in female Sprague-Dawley rat at 10 mg/kg, po measured up to 24 hrs by LC-MS/MS analysis
Type: ADME, organism-based
Design: route oral, dose 10 mg/kg, time <=24
PROTOCOL CONDITIONS: in vivo
RESULT TYPE: AUC(0-t) at 24 h
Dear colleague, please send the value followed by its unit.

## Task Specify reported AUC(0-t) at 24 h for the compound shown: `O=C1NC2(CC2)COc2ncc(F)cc2[C@H]2COCCN2c2ccn3ncc1c3n2`
## Result 31.7 µM·h

====

Test system: KM12
ASSAY METHOD TEXT: Antiproliferative activity against TrK fused human KM12 cells
Assay type: functional, cell-based
RESULT TYPE: IC50

## Task Answer briefly: IC50 recorded on KM12 for `C[C@@H]1CCc2ncc(F)cc2[C@H]2CCCN2c2ccn3ncc(c3n2)C(=O)N1`
## Result ≤ 5 nM

====

ASSAY METHOD TEXT: Protein binding in dog plasma assessed as unbound fraction by LC-MS/MS based equilibrium dialysis method
Type: ADME, cell-free, Canis lupus familiaris
Sorting guide: entries reporting fraction unbound beneath 0.09 go in the criterion met pile, the rest go in the criterion not met pile.

O=C1NC2(CC2)COc2ncc(F)cc2[C@H]2CNCCN2c2ccn3ncc1c3n2; criterion not met
C[C@@H]1CCc2ncc(F)cc2[C@H]2CCCN2c2ccn3ncc(c3n2)C(=O)N1; criterion not met
O=C1NC2(CC2)COc2ncc(F)cc2[C@H]2COCCN2c2ccn3ncc1c3n2; criterion not met

Now examine the next entry.
## Task # TODO verify fraction unbound < 0.09 strictly for this compound: `O=C1NC2(CC2)COc2ncc(F)cc2[C@H]2CCCCN2c2ccn3ncc1c3n2`
## Result criterion met

====

ASSAY METHOD TEXT: Protein binding in mouse plasma assessed as unbound fraction by LC-MS/MS based equilibrium dialysis method
Assay type: ADME, cell-free
Reported fraction unbound values for a set of molecules

C[C@@H]1CCc2ncc(F)cc2[C@H]2CCCN2c2ccn3ncc(c3n2)C(=O)N1; 0.02
O=C1NC2(CC2)COc2ncc(F)cc2[C@H]2COCCN2c2ccn3ncc1c3n2; 0.11
C[C@H]1CNC(=O)c2cnn3ccc(nc23)N[C@H](C)c2cc(F)ccc2O1; 0.05
O=C1NC2(CC2)COc2ncc(F)cc2[C@H]2CNCCN2c2ccn3ncc1c3n2; 0.28

Okay, next one:
## Task Specify reported fraction unbound for the molecule shown: `O=C1NC2(CC2)COc2ncc(F)cc2[C@H]2CCCCN2c2ccn3ncc1c3n2`
## Result 0.02

====

Reported Cmax values for a set of compounds
ASSAY METHOD TEXT: Cmax in Sprague-Dawley rat at 10 mg/kg, po measured up to 24 hrs by LC-MS/MS analysis
Format: ADME, organism-based
Set-up: route oral, dose 10 mg/kg, time <=24
PROTOCOL CONDITIONS: in vivo
Report as a plain number; the unit µM is understood.

C[C@H]1CNC(=O)c2cnn3ccc(nc23)N[C@H](C)c2cc(F)ccc2O1 [REPOTRECTINIB]; 16.9

## Task Specify reported Cmax for the compound shown: C[C@@H]1CCc2ncc(F)cc2[C@H]2CCCN2c2ccn3ncc(c3n2)C(=O)N1 [SELITRECTINIB]
## Result 12.7

====

ASSAY METHOD TEXT: AUC (0 to t) in female Sprague-Dawley rat at 2 mg/kg, iv measured up to 24 hrs by LC-MS/MS analysis
Type: ADME, organism-based
Design: route intravenous, dose 2 mg/kg, time <=24
PROTOCOL CONDITIONS: in vivo
RESULT TYPE: AUC(0-t) at 24 h (µM·h)
Report as a plain number; the unit µM·h is understood.

## Task Specify reported AUC(0-t) at 24 h for the compound shown: `O=C1NC2(CC2)COc2ncc(F)cc2[C@H]2COCCN2c2ccn3ncc1c3n2`
## Result 10.3

====

Reported AUC(0-t) at 24 h values for a set of molecules
ASSAY METHOD TEXT: AUC (0 to t) in Sprague-Dawley rat at 10 mg/kg, po measured up to 24 hrs by LC-MS/MS analysis
Type: ADME, organism-based
Set-up: route oral, dose 10 mg/kg, time <=24
PROTOCOL CONDITIONS: in vivo
Report as a plain number; the unit µM·h is understood.

C[C@@H]1CCc2ncc(F)cc2[C@H]2CCCN2c2ccn3ncc(c3n2)C(=O)N1; 27.3

Okay, next one:
## Task Specify reported AUC(0-t) at 24 h for the molecule shown: `C[C@H]1CNC(=O)c2cnn3ccc(nc23)N[C@H](C)c2cc(F)ccc2O1`
## Result 59.7
